Tested on: FOLR1-positive Igrov1 cells
ASSAY: Secondary antibody cell killing assay (anti-human Fc nanobody-hemiasterlin) on Igrov1 cells
Assay type: cell-based
EXPERIMENTAL_CONDITIONS: humanized 6D1 (2060) antibodies
Consider the following molecules; for each one, report its Igrov 2° Antibody Cell Killing, Nb-SC239 span.
Give a bare numeral; the unit % is implied.

Return reported Igrov 2° Antibody Cell Killing, Nb-SC239 span; argument: SRP2060-E05: affinity-matured humanized 6D1 antibody, VH SEQ ID NO 364, VL H6D1-LC4 (antibody, V domains shown, drug conjugate; Synthetic SRP2060-E05, VH; Synthetic H6D1-LC4, VL) VH: EVQLLESGGGLVQPGGSLRLSCAFSGFSLSTFGMGVGWVRQAPGKGLEWVSHIWWDDDKYYHPALKGRFTVSKDNSKNTVYLQMNSLRAEDTAVYYCGRNHFPHYYGSSHWYFNVWGQGTTVTVSS VL: EIVMTQSPATLSLSPGERATLSCKASQDINSYLSWYQQKPGQAPRLLIYRANRLVDGIPARFSGSGSGTDYTLTISSLEPEDFAVYYCLQYDEFPYTFGGGTKVEIK 71

Return reported Igrov 2° Antibody Cell Killing, Nb-SC239 span; argument: SRP2060-A06 (antibody, V domains shown, drug conjugate; Synthetic SRP2060-A06, VH; Synthetic H6D1-LC5, VL) VH: EVQLLESGGGLVQPGGSLRLSCAFSGFSLSTFGMGVGWVRQAPGKGLEWVGHIWWDDDKYYYPALKGRFTISKDNSKNTVYLQMNSLRAEDTAVYYCGRNHFPHYYGSSHWYFDVWGQGTTVTVSS VL: DIQMTQSPSTLSASVGDRVTITCKASQDINSYLSWYQQKPGKAPKLLIYRANRLVDGVPSRFSGSGSGTEFTLTISSLQPDDFATYYCLQYDEFPYTFGGGTKVEIK 66

Return reported Igrov 2° Antibody Cell Killing, Nb-SC239 span; argument: SRP2060-E10: affinity-matured humanized 6D1 antibody, VH SEQ ID NO 363, VL H6D1-LC4 (antibody, V domains shown, drug conjugate; Synthetic SRP2060-E10, VH; Synthetic H6D1-LC4, VL) VH: EVQLLESGGGLVQPGGSLRLSCAFSGFSLSTFGMGVGWVRQAPGKGLEWVSHIWWDDDKYYHPALKGRFTISKDNSKNTVYLQMNSLRAEDTAVYYCGRNHFPHYYGSSHWYFNVWGQGTTVTVSS VL: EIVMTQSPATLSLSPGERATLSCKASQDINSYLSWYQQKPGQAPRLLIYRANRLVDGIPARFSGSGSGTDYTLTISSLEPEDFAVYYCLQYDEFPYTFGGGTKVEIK 68
